experiment: NCI Yeast Anticancer Drug Screen. Data for the sgs1 mgt1 strain (AID 161);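 note: 0% = growth of cultures given vehicle only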; details: S. cerevisiae sgs1 mgt1 strain, at 50.0 µM, stronger effect = higher value
About 79,000 compounds went through this panel and 15% of them were active in at least one assay; those are over-represented in the sample as a whole. Calls of active or inactive are those of the source. Cut-off read from the data, not from the text of the source: active = growth inhibition above about 70%; inactive = the rest.
# growth inhibition per record follows
measuredParameter: growth inhibition

- CN1C/C(=C\c2ccco2)c2nc(N)nc(-c3ccco3)c2C1: 8.9% (inactive)
- c1ccc(-c2cc3c4ccccc4ccn3c2)cc1: 20.2% (inactive)
- CCS(=O)CCC(N)C(=O)O (stereo not drawn): 1.65% (inactive)
- COc1cc2c3c(c1)CCCN3CCC2: -20.5% (inactive)
- NNC(=O)CSCC(=O)NN: -3.25% (inactive)
- OC(CI)C1OCOC2COCOC21 (stereo not drawn): 13.1% (inactive)
- CC(C)OC(CCCl)c1ccc(Cl)cc1 (stereo not drawn): -22.1% (inactive)
- COc1ccc(C(=O)CC2=Nc3nnc(CCCCCCCc4nnc5n4C(=O)C(CC(=O)c4ccc(OC)cc4)=N5)n3C2=O)cc1: -16.4% (inactive)
- COc1cc([N+](=O)[O-])c2ncccc2c1: -7.6% (inactive)
- O=[N+]([O-])c1ccc(F)c(Cl)c1F: -2.15% (inactive)
- CCNS(=O)(=O)c1ccc2c(c1)nc(C)n2CC: -3.5% (inactive)
- CC(=O)OC(C)=O: 8% (inactive)
- CSc1ncc(CO)c(Nc2ccccc2Cl)n1: -19.4% (inactive)
